Sourced from paper PMC11861591

experimentalTarget: V5-LC3, Q9GZQ8
testDetails: co-immunoprecipitation (Flag IP), western blot band quantification
reportedConditions: chain shown with the change; HEK293T cells expressing V5-LC3 and Flag-RhoC; n = 3; parent: est. 4.6; read off a plot; scale: relative IP LC3-II protein level
property: response
Lab note: jot down the number only; don't add units.

Some solved entries appear below for comparison.
{"columns": ["binder", "numericValue"],
 "data": [
  ["Flag-tagged RhoC (wild type), P08134 Y66A; L69A; F154A; L157A (protein) MAAIRKKLVIVGDGACGKTCLLIVFSKDQFPEVYVPTVFENYIADIEVDGKQVELALWDTAGQEDADRARPLSYPDTDVILMCFSIDSPDSLENIPEKWTPEVKHFCPNVPIILVGNKKDLRQDEHTRRELAKMKQEPVRSEEGRDMANRISAAGYAECSAKTKEGVREVFEMATRAGLQVRKNKRRRGCPIL", 1],
  ["Flag-tagged RhoC (wild type), P08134 F30A; V33A (protein) MAAIRKKLVIVGDGACGKTCLLIVFSKDQAPEAYVPTVFENYIADIEVDGKQVELALWDTAGQEDYDRLRPLSYPDTDVILMCFSIDSPDSLENIPEKWTPEVKHFCPNVPIILVGNKKDLRQDEHTRRELAKMKQEPVRSEEGRDMANRISAFGYLECSAKTKEGVREVFEMATRAGLQVRKNKRRRGCPIL", 4.7],
  ["Flag-tagged RhoC (wild type), P08134 F154A; L157A (protein) MAAIRKKLVIVGDGACGKTCLLIVFSKDQFPEVYVPTVFENYIADIEVDGKQVELALWDTAGQEDYDRLRPLSYPDTDVILMCFSIDSPDSLENIPEKWTPEVKHFCPNVPIILVGNKKDLRQDEHTRRELAKMKQEPVRSEEGRDMANRISAAGYAECSAKTKEGVREVFEMATRAGLQVRKNKRRRGCPIL", 1.2]
]}

Kindly review the next binder as well.
Ask: State the recorded response for this entry: Flag-tagged RhoC (wild type), P08134 Y66A; L69A (protein) MAAIRKKLVIVGDGACGKTCLLIVFSKDQFPEVYVPTVFENYIADIEVDGKQVELALWDTAGQEDADRARPLSYPDTDVILMCFSIDSPDSLENIPEKWTPEVKHFCPNVPIILVGNKKDLRQDEHTRRELAKMKQEPVRSEEGRDMANRISAFGYLECSAKTKEGVREVFEMATRAGLQVRKNKRRRGCPIL
Reply: 2.1
